Value source: ChEMBL document CHEMBL3091333

test system: A-431; assay: Antiproliferative activity against human A431 cells after 72 hrs by SRB assay; format: functional, cell-based; conditions: A-431, 72 h
Kindly supply the reported IC50 values for the records listed here.
Give bare numbers, in nM.

Example results:
# structure_as_smiles, readout_unit, reported_measurement
measured = [
    ("O=C(Nc1cc2c(Nc3ccc(F)c(Cl)c3)ncnc2cc1O[C@H]1CCOC1)N1CCC(F)(F)C1", "nM", 1480),
    ("O=C(Nc1cc2c(Nc3ccc(F)c(Cl)c3)ncnc2cc1O[C@H]1CCOC1)N1CCN(CCO)CC1", "nM", 1130),
    ("O=C(NCCO)Nc1cc2c(Nc3ccc(F)c(Cl)c3)ncnc2cc1O[C@H]1CCOC1", "nM", 598),
    ("CCN(CC)CCN(C)C(=O)Nc1cc2c(Nc3ccc(F)c(Cl)c3)ncnc2cc1O[C@H]1CCOC1", "nM", 481),
    ("COC(CCNC(=O)Nc1cc2c(Nc3ccc(F)c(Cl)c3)ncnc2cc1O[C@H]1CCOC1)OC", "nM", 22000),
    ("O=C(Nc1cc2c(Nc3ccc(F)c(Cl)c3)ncnc2cc1O[C@H]1CCOC1)N1CCC(F)CC1", "nM", 3040),
    ("O=C(Nc1cc2c(Nc3ccc(F)c(Cl)c3)ncnc2cc1O[C@H]1CCOC1)N1CCCC(F)(F)C1", "nM", 935),
    ("CN(C)CCCNC(=O)Nc1cc2c(Nc3ccc(F)c(Cl)c3)ncnc2cc1O[C@H]1CCOC1", "nM", 226),
]

Attention now shifts to the item below.
Give the reported value of IC50 for this record: O=C(Nc1cc2c(Nc3ccc(F)c(Cl)c3)ncnc2cc1O[C@H]1CCOC1)N1CCC2(CC1)OCCO2
2180
